Value source: the Human Domainome abundance scans (Beltran et al. 2025)

B1: Gamma-crystallin D, residues 90 to 170; numbered along this chain, P07320 (parent)
chain: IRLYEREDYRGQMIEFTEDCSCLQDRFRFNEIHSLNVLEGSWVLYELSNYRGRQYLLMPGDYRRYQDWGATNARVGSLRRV

variants of: B1; assay: abundance fitness (aPCA) (normalised: wild type 0, dead -1); higher = more abundant; growth selection in yeast, the domain comes from the species named; settings: Homo sapiens
Outcome Measure: abundance fitness

E15N	0.206
R6V	-0.035
S21R	-0.03
Q24M	0.167
F29C	0.036
N30E	0.092
N36E	0.023
F16M	-0.115
W42Y	0.166
Y55K	0.087
Q24I	-0.038
E39L	-0.061
E7Q	-0.016
Q54L	-0.149
F16G	0.035
I1W	-1
N30A	0.028
R51D	-0.027
N36R	0.006
Q54R	-0.066
D25E	0.088
E31S	-0.123
N36W	0.076
N36T	-0.153
N36P	-1.23
V37D	0.165
E15Y	-0.135
Q12C	-0.352
N36S	0.135
Q12S	-0.008
C20G	0.052
F27V	-0.092
G40K	-0.187
N49Q	0.015
I1F	-0.462
E39S	-0.024
L35E	-1.08
W42F	-0.105
H33C	-0.01
M13R	-0.075
S21H	-0.088
E7G	-0.095
S21P	-0.215
L3S	0.122
R2L	-0.162
Q54V	-0.193
D8T	-0.016
W42V	0.114
G40R	-0.142
M13S	0.061
R51H	-0.122
S21Q	-0.246
M58T	0.125
N49R	-0.107
F16C	-0.029
F29A	0.008
Y50C	-0.44
N36F	0.114
R10V	-0.005
R28M	0.065
Y55V	0.082
R6H	-0.124
N36K	-0.023
G40L	-0.143
T17R	0.074
L57C	-0.029
